# Tested on: HCT-116 MTAP wild-type cells
# Assay text: Inhibition of proliferation of HCT-116 MTAP wild-type cells (Cell-Titer Glo)
# Format: cell-based
# Measurement conditions: Homo sapiens, HCT-116, 192 h, 8 days
Quantity: IC50

Consider the following illustrative entries.
{"Molecule": "CN(C(=O)c1ccc2nc(N)c3cncn3c2c1)[C@@H]1COc2cc(C(F)(F)F)ncc21 [Example 26]", "Study target": "HCT-116 MTAP wild-type cells", "IC50": "> 10000 nM"}
{"Molecule": "CC1OC[C@@H](N(C)C(=O)c2ccc3nc(N)c4cncn4c3c2)c2cccnc21 (stereo partly drawn) [Example 108]", "Study target": "HCT-116 MTAP wild-type cells", "IC50": "> 10000 nM"}
{"Molecule": "CN(C(=O)c1ccc2nc(N)c3cnc(Br)n3c2c1)[C@@H]1COc2cc(C(F)(F)F)ccc21 [Example 111]", "Study target": "HCT-116 MTAP wild-type cells", "IC50": "> 10000 nM"}
{"Molecule": "Cc1ncc(-c2ccc3c(c2)C(C)OC[C@H]3N(C)C(=O)c2ccc3nc(N)c4cncn4c3c2)cn1 (stereo partly drawn) [Example 21]", "Study target": "HCT-116 MTAP wild-type cells", "IC50": "2130 nM"}
{"Molecule": "CN(C(=O)c1ccc2nc(N)c3c(Br)ncn3c2c1)[C@@H]1COc2cc(C(F)(F)F)ccc21 [Example 127]", "Study target": "HCT-116 MTAP wild-type cells", "IC50": "9900 nM"}

Next molecule, please.
What does the data say about its IC50? Entry: CN(C(=O)c1ccc2nc(N)c3cncn3c2c1)[C@@H]1COc2cc(OC(F)(F)F)ccc21 [Example 56]
1530 nM

Data origin, for the record: patent EP4775208A1
